assay: microbe, parasite or virus in culture; format: functional; conditions: Mycobacterium tuberculosis
Calls of active or inactive are those of the source.
PROPERTY_MEASURED: CC50

Look up CC50 of Cc1cc(NC(=O)CCl)no1 and report it.
19.6 µM (active)

Look up CC50 of COc1ccc(-c2nnc3sc(C4CCCCC4)nn23)cc1OC and report it.
> 40 µM (active)

Record CC50 per entry; entries follow.
1. O=C(CSc1ccccn1)Nc1nonc1[N+](=O)[O-]
2. COc1nc(-c2ccccc2)cc(-c2ccc(OC)c(OC)c2)n1
3. CN1CCN(C2=Cc3ccc(Cl)cc3Sc3ccc(F)cc32)CC1

1. 24.5 µM (active)
2. > 40 µM (active)
3. 33.1 µM (active)

###

molecular target: Kappa-type opioid receptor (Homo sapiens, UniProt P41145); format: functional
Sequence (P41145 whole entry): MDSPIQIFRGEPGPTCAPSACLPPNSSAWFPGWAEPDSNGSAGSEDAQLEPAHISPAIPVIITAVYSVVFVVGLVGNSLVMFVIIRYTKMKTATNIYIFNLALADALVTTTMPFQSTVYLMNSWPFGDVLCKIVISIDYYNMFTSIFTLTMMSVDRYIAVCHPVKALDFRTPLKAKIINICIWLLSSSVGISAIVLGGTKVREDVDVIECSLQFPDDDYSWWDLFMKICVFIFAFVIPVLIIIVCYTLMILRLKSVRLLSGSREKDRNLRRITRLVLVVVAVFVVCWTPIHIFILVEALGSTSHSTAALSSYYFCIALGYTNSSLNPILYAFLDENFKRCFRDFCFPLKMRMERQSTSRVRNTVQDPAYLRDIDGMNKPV
PROPERTY_MEASURED: pEC50
Give bare numbers, as −log10 of the molar value.

Look up pEC50 of CCCCN(Cc1cc2cc(C)ccc2[nH]c1=O)C(=O)c1ccccn1 and report it.
5.31

###

target: Sentrin-specific protease 8 (Homo sapiens, UniProt Q96LD8); experiment: inhibition of human SENP8 cleavage activity – biochemical, luminescence, SAR follow-up (AID 504501); format: functional
Sequence (Q96LD8 whole entry): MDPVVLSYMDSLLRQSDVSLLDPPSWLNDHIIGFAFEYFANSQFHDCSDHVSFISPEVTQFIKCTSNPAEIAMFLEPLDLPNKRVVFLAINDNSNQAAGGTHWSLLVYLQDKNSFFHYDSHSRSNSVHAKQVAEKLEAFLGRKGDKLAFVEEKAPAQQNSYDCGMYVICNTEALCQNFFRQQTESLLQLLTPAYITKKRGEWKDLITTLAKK
Activity calls are given as the source filed them.
Hello, when you answer, please use one of the following outcomes: active, inactive

Before answering, review these 3 worked examples.
Recorded test call requested for Fc1cccc(F)c1-c1nc(/C=C/c2ccccc2)no1
active

Recorded test call requested for CN(C)S(=O)(=O)c1ccc2nc(NC(=O)c3sc4ccccc4c3Cl)sc2c1
inactive

Recorded test call requested for C(=N/Nc1cc(N2CCCCCC2)nc(N2CCCCCC2)n1)/c1ccccc1
inactive

Others:
Recorded test call requested for Cc1cc(C(=O)Nc2sc3c(c2C#N)CCC3)no1
inactive

###

target: Kappa-type opioid receptor (Homo sapiens); assay type: functional
PROPERTY_MEASURED: IC50

For Kappa-type opioid receptor (Homo sapiens), give IC50 of the listed compound: C/C(=N\NC(=O)C(C)Oc1ccc([N+](=O)[O-])cc1)c1ccccn1 (stereo unspecified)
> 32 µM

###

biological target: Fatty acid synthase (Homo sapiens); assay: inhibition of human FAS-TE enzyme activity – biochemical, endpoint fluorescence intensity, uHTS hits, dose response (AID 624327); assay type: functional;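 note: fluorescence from hydrolysis of an O-methyl fluorescein acyl ester substrate by the enzyme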
Sequence (P49327 whole entry): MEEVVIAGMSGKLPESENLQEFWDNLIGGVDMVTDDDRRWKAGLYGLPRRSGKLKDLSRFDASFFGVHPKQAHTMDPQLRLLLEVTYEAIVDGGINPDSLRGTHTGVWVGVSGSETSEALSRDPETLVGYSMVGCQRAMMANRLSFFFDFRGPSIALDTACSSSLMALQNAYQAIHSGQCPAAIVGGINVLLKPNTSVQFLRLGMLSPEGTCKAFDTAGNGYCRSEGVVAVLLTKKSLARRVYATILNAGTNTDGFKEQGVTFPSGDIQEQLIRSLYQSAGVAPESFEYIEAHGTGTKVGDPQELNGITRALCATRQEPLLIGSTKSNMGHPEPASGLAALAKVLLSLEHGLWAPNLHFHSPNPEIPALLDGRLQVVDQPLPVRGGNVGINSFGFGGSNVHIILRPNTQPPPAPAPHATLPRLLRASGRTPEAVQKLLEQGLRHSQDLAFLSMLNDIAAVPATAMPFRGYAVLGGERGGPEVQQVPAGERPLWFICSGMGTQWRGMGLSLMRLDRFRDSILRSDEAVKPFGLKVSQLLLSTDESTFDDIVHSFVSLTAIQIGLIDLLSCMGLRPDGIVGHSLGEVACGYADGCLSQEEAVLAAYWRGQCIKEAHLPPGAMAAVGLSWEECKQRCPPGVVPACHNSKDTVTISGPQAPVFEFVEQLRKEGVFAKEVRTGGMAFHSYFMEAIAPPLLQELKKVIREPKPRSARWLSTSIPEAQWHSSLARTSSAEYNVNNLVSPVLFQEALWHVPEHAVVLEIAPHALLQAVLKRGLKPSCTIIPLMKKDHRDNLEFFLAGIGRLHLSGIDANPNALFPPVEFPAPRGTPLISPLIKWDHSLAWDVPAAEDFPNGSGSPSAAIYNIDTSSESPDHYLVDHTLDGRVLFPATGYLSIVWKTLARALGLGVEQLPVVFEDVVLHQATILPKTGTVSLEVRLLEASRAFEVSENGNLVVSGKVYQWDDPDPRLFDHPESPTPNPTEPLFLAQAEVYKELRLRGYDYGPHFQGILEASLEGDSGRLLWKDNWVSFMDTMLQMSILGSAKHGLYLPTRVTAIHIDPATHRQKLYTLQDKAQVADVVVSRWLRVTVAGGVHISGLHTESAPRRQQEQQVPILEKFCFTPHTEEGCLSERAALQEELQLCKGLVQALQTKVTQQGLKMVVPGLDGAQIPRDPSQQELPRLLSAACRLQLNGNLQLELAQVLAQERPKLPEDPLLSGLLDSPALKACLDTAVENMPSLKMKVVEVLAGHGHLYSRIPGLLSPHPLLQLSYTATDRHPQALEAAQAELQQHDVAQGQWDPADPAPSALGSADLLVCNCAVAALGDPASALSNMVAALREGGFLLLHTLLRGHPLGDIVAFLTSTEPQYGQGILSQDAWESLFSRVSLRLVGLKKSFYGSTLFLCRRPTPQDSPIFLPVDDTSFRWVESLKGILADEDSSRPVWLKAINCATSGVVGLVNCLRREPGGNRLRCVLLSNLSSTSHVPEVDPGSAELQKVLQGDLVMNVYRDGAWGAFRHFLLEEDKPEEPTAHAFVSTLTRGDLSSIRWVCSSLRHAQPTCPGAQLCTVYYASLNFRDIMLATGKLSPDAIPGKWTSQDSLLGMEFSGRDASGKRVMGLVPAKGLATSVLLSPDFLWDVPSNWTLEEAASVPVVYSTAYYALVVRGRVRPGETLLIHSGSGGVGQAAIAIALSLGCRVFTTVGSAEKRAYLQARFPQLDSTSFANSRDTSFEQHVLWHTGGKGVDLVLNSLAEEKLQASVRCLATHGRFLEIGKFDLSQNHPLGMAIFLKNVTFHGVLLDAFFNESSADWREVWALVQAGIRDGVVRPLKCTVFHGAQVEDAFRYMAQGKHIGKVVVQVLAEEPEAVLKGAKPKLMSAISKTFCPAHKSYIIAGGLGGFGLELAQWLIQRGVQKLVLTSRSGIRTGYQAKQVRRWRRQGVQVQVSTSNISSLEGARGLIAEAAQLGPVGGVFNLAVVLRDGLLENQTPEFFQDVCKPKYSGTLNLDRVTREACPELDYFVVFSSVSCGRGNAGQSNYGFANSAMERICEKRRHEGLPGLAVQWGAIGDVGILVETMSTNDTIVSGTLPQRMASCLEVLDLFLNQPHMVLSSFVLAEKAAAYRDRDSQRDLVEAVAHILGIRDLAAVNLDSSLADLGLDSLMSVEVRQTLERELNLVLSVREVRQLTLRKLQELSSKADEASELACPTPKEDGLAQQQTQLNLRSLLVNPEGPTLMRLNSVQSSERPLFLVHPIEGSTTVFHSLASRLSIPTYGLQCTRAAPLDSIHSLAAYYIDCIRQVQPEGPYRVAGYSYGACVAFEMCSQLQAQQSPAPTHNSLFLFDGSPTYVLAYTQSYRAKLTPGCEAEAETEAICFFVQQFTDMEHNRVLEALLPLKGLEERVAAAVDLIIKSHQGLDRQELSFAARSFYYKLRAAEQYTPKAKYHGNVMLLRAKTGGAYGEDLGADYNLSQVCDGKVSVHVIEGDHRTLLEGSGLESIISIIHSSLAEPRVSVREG
Activity calls are given as the source filed them.
Hello, when you answer, please use one of the following outcomes: active, inactive

Before answering, review these 5 worked examples.
Recorded test call requested for COc1ccc(C(=O)N/C(=C\c2ccc([N+](=O)[O-])cc2)C(=O)NC(CCSC)C(=O)O)cc1 (stereo unspecified)
active

Recorded test call requested for COc1ccc(CNC(=O)/C=C/c2cc([N+](=O)[O-])ccc2OC(F)F)cc1
active

Recorded test call requested for COc1ccc(C2=NN(CN3C(=O)C(=O)c4ccccc43)C(c3cccc([N+](=O)[O-])c3)C2)cc1 (stereo unspecified)
active

Recorded test call requested for CCCCCOC(=O)C1=C(C)NC(=O)NC1c1ccc([N+](=O)[O-])cc1 (stereo unspecified)
active

Recorded test call requested for O=C1c2ccccc2C(=O)N1OS(=O)(=O)c1ccc(F)cc1
active

Others:
Recorded test call requested for O=[N+]([O-])c1ccc(NC(S)=NCCc2ccccc2)cc1
inactive

###

biological target: UniProtKB P9WHJ3; assay: Fluorescence Cell-Free Homogeneous Dose Retest to Identify Inhibitors of RecA-Intein Splicing Activity. [Related pubchem assays (depositor defined):AID2097, AID2223, AID489010, AID492950]; assay type: functional
The source made the active and inactive calls.
Hello, when you answer, please use one of the following outcomes: active, inactive

Recorded test call requested for N#Cc1c(N2CCCC2)nc(N)c2c(N)nc(N3CCCC3)cc12
active

Recorded test call requested for COc1ccc2nc(C)cc(Sc3nc4ccccc4s3)c2c1
active

Others:
Recorded test call requested for COC(=O)c1cc(C)nc2c1C(=O)C(=O)C=C2N1CCOCC1
active
